# target_or_system: UniProt Q9H0K1
# procedure_summary: SIK2 Enzymatic Assay High Version 2 (High ATP)
# Format: biochemical
IC50 for assorted compounds
Expressed in nM, but write only the number.

Some compounds with recorded IC50:
>>> readout_number("Cc1cc(-c2ccn3nc(Nc4ccn(C)n4)cc3c2)c(O[C@H]2CC[C@H](O)CC2)cn1 [Example 181]")
32
>>> readout_number("Cc1cc(Nc2cc3cc(-c4cc(C)ncc4O[C@H]4C[C@H]5COC[C@@H](C4)N5C)ccn3n2)ncn1 [Example 421]")
12.2
>>> readout_number("Cc1cc(-c2ccn3nc(Nc4ccnnc4)cc3c2)c(O[C@H]2C[C@H]3COC[C@@H](C2)N3C)cn1 [Example 408]")
1

Q: If you can, please state the reported IC50 value of N#Cc1cc(-c2ccn3nc(NC(=O)C4CC4)cc3c2)c(O[C@@H]2CCN(CC(F)(F)F)C2)cn1 [Example 110] .
A: 2.85

Q: If you can, please state the reported IC50 value of Cc1cc(-c2ccn3nc(Nc4cn(C)nc4F)cc3c2)c(O[C@H]2C[C@H]3COC[C@@H](C2)N3C)cn1 [Example 412] .
A: 0.883

Q: If you can, please state the reported IC50 value of Cc1cc(-c2ccn3nc(Nc4cc(C)nc(C)n4)cc3c2)c(OC[C@H]2CCN2C)cn1 [Example 527] .
A: 8.1

Q: If you can, please state the reported IC50 value of Cc1cc(-c2ccn3nc(NC(=O)C4CC4)cc3c2)c(O[C@H]2C[C@@H](N)C2)cn1 [Example 464] .
A: 11.6

Q: If you can, please state the reported IC50 value of N#Cc1cc(-c2ccn3nc(NC(=O)C4CC4)cc3c2)c(O[C@@H]2CCN(Cc3ccccn3)C2)cn1 [Example 112] .
A: 81.5

----------
# target_or_system: SIK2 (Homo sapiens, UniProt Q9H0K1)
# Sequence (Q9H0K1 whole entry, species assumed): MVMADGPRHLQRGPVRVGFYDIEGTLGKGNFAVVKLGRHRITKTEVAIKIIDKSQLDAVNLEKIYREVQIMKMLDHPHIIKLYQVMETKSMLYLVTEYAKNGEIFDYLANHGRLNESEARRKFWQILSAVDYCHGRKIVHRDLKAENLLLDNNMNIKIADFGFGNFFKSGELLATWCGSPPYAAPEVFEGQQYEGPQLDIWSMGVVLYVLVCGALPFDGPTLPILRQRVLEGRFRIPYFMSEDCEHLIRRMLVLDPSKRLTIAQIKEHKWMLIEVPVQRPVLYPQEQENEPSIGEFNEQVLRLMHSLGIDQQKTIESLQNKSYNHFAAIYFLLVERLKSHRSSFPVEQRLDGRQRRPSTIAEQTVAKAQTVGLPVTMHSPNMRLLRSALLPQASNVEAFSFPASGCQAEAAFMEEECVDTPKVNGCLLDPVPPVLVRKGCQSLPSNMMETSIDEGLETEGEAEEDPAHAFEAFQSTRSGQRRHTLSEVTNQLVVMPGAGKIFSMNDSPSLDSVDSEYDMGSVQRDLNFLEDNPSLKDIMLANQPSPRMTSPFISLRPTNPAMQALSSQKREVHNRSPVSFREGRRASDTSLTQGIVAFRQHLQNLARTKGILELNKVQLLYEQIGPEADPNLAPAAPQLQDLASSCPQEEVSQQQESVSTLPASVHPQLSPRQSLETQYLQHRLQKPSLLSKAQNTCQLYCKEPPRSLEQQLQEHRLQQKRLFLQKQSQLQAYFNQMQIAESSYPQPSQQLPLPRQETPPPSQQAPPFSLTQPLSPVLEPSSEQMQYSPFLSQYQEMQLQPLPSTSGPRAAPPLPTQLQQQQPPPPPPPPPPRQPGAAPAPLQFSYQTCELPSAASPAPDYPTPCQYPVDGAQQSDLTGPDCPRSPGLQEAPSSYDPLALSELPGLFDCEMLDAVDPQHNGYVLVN
# procedure_summary: SIK2 Enzymatic Assay High Version 2 (High ATP)
# Type: biochemical
# study_conditions: enzyme 6 nM, 6 mM ATP and 400 μM HDAC5tide (each 2× final concentration); 30 minutes pre-incubation, 2 hours; ADP-Glo Max luminescence; read-out: SIK2 high ATP IC50 (μM) (Test Example 2)
measure_name: IC50 (µM)
Expressed in µM, but write only the number.

Some compounds with recorded IC50:
>>> readout_number("Cc1cc(-c2ccn3nc(NC(=O)C4CC4)cc3c2)c(OC[C@]2(F)CCNC2)cn1 (single isomer, unassigned)")
0.0469
>>> readout_number("Cc1cc(-c2ccn3nc(NC(=O)C4CC4)cc3c2)c(OCC(C)(O)C2CC2)cn1 (single isomer, unassigned)")
0.202
>>> readout_number("CC(C)(C#N)COc1cnc(OC(F)F)cc1-c1ccn2nc(Nc3cccnc3)cc2c1")
0.0195
>>> readout_number("Cc1cc(-c2ccn3nc(NC(=O)C4CC4)cc3c2)c(OCC2(O)CCNC2)cn1 (single isomer, unassigned) [Example 223]")
0.0278

Q: If you can, please state the reported IC50 value of `Cc1cc(-c2cn3cc(Nc4cc(C)nc(C)n4)nc3cn2)c(O[C@H]2CC[C@H](O)CC2)cn1` .
A: 0.0297

Q: If you can, please state the reported IC50 value of `COCc1nc(C)cc(Nc2cc3cc(-c4cc(C)ncc4O[C@H]4CC[C@H](O)CC4)ccn3n2)n1` .
A: 0.00343

Q: If you can, please state the reported IC50 value of Cc1cc(-c2ccn3nc(NC(=O)C4CC4)cc3c2)c(OC[C@](C)(O)C2CC2)cn1 (single isomer, unassigned) .
A: 0.0234

Q: If you can, please state the reported IC50 value of `Cc1cc(-c2ccn3nc(Nc4ccc(C(=O)NC(C)C)c(C)c4)cc3c2)c(OCC(C)(C)O)cn1` .
A: 0.0306

Q: If you can, please state the reported IC50 value of `Cc1cc(Nc2cc3cc(-c4cc(OC(F)F)ncc4OC[C@@H]4CNCCO4)ccn3n2)nc(C)n1` .
A: 0.00682

All figures here come from patent US20240158392A1.
